experiment: AUC (0 to infinity) in Sprague-Dawley rat at 10 mg/kg, iv measured up to 24 hrs by LC-MS/MS analysis; type: ADME, organism-based; set-up: dose 10 mg/kg, route intravenous, time infinity; settings: in vivo
ASSAY READOUT: AUC(0-inf) (ng·h/mL)
Express the result in ng·h/mL but write the number alone.

COMPOUND	VALUE
COC(=O)[C@]12CCC(C)(C)C[C@H]1[C@H]1C(=O)C=C3[C@@]4(C)C=C(C#N)C(=O)C(C)(C)[C@@H]4CC[C@@]3(C)[C@]1(C)CC2 [BARDOXOLONE METHYL]	2180

Next compound, please.
Prompt: Field request: AUC(0-inf) | item: COC(=O)[C@@H](N)CCC(=O)Nc1ccc(COC2=C(C#N)[C@H](O)[C@]3(C)C4=CC(=O)[C@@H]5[C@@H]6CC(C)(C)CC[C@]6(C(=O)OC)CC[C@@]5(C)[C@]4(C)CC[C@H]3C2(C)C)cc1
Response: 531
